Collected Post-emergence action against SETVI in % values appear next to each entry.
- System: Setaria viridis (SETVI)
- Test summary: Post-emergence herbicidal action against SETVI
- Assay type: in vivo
- Experimental context: dosage 80 g/ha

- Compound: "COC(=O)[C@@H](C)Oc1nn(-c2ncccc2F)c(-c2ccc(F)nc2)c1Br [Example I-05]"
  Post-emergence action against SETVI in % [%]: 80
- Compound: "CCCOC(=O)COc1nn(-c2ncccc2F)c(-c2ccc(F)nc2)c1C1CC1 [Example I-344]"
  Post-emergence action against SETVI in % [%]: 90
- Compound: "CN(C)S(=O)(=O)NC(=O)COc1nn(-c2ncccc2F)c(-c2ccc(F)nc2)c1Br [Example I-36]"
  Post-emergence action against SETVI in % [%]: 80
- Compound: "COC(=O)CNC(=O)COc1nn(-c2ccccn2)c(-c2ccc(F)nc2)c1Br [Example I-97]"
  Post-emergence action against SETVI in % [%]: 80
- Compound: "CCOC(=O)COc1nn(-c2ncccc2F)c(-c2ccc(F)nc2)c1Br [Example I-51]"
  Post-emergence action against SETVI in % [%]: 90
- Compound: "COC(=O)[C@@H](C)Oc1nn(-c2ncccc2F)c(-c2cncc(F)c2)c1Cl [Example I-146]"
  Post-emergence action against SETVI in % [%]: 90
- Compound: "C[C@@H](Oc1nn(-c2ncccc2F)c(-c2cncc(F)c2)c1C1CC1)C(=O)O [Example I-166]"
  Post-emergence action against SETVI in % [%]: 90
- Compound: "CCOC(=O)[C@@H](C)Oc1nn(-c2nc(F)ccc2F)c(-c2cncc(F)c2)c1Cl [Example I-208]"
  Post-emergence action against SETVI in % [%]: 80
- Compound: "CCOC(=O)COc1nn(-c2ncccc2F)c(-c2ccc(F)nc2)c1Br [Example I-39]"
  Post-emergence action against SETVI in % [%]: 80
- Compound: "N#CCOC(=O)COc1nn(-c2ncccc2F)c(-c2ccc(F)nc2)c1C1CC1 [Example I-294]"
  Post-emergence action against SETVI in % [%]: 90
